Listing of entries alongside the reported DC50.
- systemName: Androgen Receptor (AR) (Homo sapiens, UniProt P10275, T878A)
- Construct: cell based immuno-fluorescence assay using the LNCaP prostate epithelial cell line; endogenous in cells; host or cells: LNCaP clone FGC (ATCC CRL-1740)
- Sequence (P10275 1-920 T878A): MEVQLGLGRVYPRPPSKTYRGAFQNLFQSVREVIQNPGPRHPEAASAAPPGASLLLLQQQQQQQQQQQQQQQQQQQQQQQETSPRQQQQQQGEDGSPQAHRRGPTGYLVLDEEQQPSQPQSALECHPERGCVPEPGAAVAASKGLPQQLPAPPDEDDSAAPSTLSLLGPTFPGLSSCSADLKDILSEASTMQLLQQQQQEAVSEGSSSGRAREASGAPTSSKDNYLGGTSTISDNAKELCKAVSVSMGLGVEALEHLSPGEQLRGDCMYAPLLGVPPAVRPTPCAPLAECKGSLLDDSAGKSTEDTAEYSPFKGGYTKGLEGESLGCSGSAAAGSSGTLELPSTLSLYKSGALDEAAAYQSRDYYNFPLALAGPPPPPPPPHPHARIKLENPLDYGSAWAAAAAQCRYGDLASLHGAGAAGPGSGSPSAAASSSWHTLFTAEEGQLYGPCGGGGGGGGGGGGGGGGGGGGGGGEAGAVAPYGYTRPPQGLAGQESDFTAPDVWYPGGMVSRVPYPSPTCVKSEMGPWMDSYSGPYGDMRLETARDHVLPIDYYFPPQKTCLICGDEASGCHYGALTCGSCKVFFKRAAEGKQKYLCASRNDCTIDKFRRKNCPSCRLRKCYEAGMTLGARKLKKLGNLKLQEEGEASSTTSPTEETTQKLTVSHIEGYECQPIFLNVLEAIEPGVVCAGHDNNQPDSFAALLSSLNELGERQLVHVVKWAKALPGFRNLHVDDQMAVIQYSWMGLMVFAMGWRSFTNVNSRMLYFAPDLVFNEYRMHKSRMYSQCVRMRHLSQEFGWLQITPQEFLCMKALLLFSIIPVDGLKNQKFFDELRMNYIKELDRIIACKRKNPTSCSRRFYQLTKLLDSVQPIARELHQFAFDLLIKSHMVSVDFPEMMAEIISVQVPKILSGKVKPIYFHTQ
- procedureDetails: LNCaP Androgen Receptor Down-regulation Cell Assay (immunofluorescence end point)
- Assay type: cell-based
- conditionContext: LNCaP prostate carcinoma cells, compound incubation 20-22 hours, 50% reduction of the AR signal; read-out: Androgen Receptor Down-regulation Assay (a) IC50/μM

smilesText	systemName	DC50, µM
N#CCOc1ccc(CN2CCN(c3ccc4nnc(C(F)(F)F)n4n3)CC2)cc1	Androgen Receptor (AR) (Homo sapiens, UniProt P10275, T878A)	1.6
FC(F)(F)c1nnc2ccc(N3CCCN(Cc4ccc(Cl)cc4)CC3)nn12	Androgen Receptor (AR) (Homo sapiens, UniProt P10275, T878A)	0.85
O=C(CCCN1CCOCC1)Nc1cccc(C2CCN(c3ccc4nnc(C(F)(F)F)n4n3)CC2)c1	Androgen Receptor (AR) (Homo sapiens, UniProt P10275, T878A)	0.65
C[C@H]1CN(Cc2ccc(F)cc2)CCN1c1ccc2nnc(C(F)(F)F)n2n1	Androgen Receptor (AR) (Homo sapiens, UniProt P10275, T878A)	2.9

----------
- systemName: Androgen Receptor (AR) (Homo sapiens, UniProt P10275, T878A)
- Construct: cell based immuno-fluorescence assay using the LNCaP prostate epithelial cell line; endogenous in cells; host or cells: LNCaP clone FGC (ATCC CRL-1740)
- procedureDetails: LNCaP Androgen Receptor Down-regulation Cell Assay (immunofluorescence end point)
- Assay type: cell-based
- conditionContext: LNCaP prostate carcinoma cells, compound incubation 20-22 hours, 50% reduction of the AR signal; read-out: Androgen Receptor Down-regulation Assay (a) IC50/μM
One threshold, 3 µM, splits the recorded DC50 values: lower ones are YES, equal or higher ones are NO.

smilesText	discreteLabel
O=C(CCCN1CCOCC1)Nc1ccc(C2CCN(c3ccc4nnc(C(F)(F)F)n4n3)CC2)cc1	YES
COc1ccc(F)c(CN2CCN(c3ccc4nnc(C(F)(F)F)n4n3)CC2)c1	YES
N#Cc1ccc(CN2CCN(c3ccc4nnc(C(F)F)n4n3)CC2)c(F)c1	NO
C[C@@H]1CN(c2ccc3nnc(C(F)(F)F)n3n2)CCN1Cc1cc(Br)cnc1F	NO
Fc1cnccc1C1=CCN(c2ccc3nnc(C(F)(F)F)n3n2)CC1	YES
CN1CCC(C(=O)Nc2ccc(C3CCN(c4ccc5nnc(C(F)(F)F)n5n4)CC3)cc2)CC1	YES
FC(F)c1nnc2ccc(N3CCN(Cc4c[nH]c5ccc(Br)cc45)CC3)nn12	NO
CN(C)C(=O)c1cccc(C2CCN(c3ccc4nnc(C(F)(F)F)n4n3)CC2)c1	YES

----------
- systemName: Androgen Receptor (AR) (Homo sapiens, UniProt P10275, T878A)
- Construct: cell based immuno-fluorescence assay using the LNCaP prostate epithelial cell line; endogenous in cells; host or cells: LNCaP clone FGC (ATCC CRL-1740)
- procedureDetails: LNCaP Androgen Receptor Down-regulation Cell Assay (immunofluorescence end point)
- Type: cell-based
- conditionContext: LNCaP prostate carcinoma cells, compound incubation 20-22 hours, 50% reduction of the AR signal; read-out: Androgen Receptor Down-regulation Assay (a) IC50/μM
- Description: The ability of compounds to reduce Androgen Receptor (AR) numbers was assessed in a cell based immuno-fluorescence assay using the LNCaP prostate epithelial cell line. a) LNCaP Androgen Receptor Down-regulation Cell Assay […] Immunostaining was performed at room temperature. […] Then 50 μl of PBST was added to each well and plates were covered with a black plate seal and stored at 4° C. before being read. Plates were read within six hours of completing the immunostaining. […]
One threshold, 2 µM, splits the recorded DC50 values: lower ones are fulfilled, equal or higher ones are not fulfilled.

smilesText	discreteLabel
O=C(c1ccc(F)cc1)C1CCN(c2ccc3nnc(C(F)(F)F)n3n2)CC1	not fulfilled
CC(=O)Nc1cccc(C2CCN(c3ccc4nnc(C(F)(F)F)n4n3)CC2)c1	fulfilled
C[C@H]1CN(Cc2ccc(F)c(F)c2)CCN1c1ccc2nnc(C(F)(F)F)n2n1	not fulfilled
Fc1ccc(O[C@@H]2CCN(c3ccc4nnc(C(F)(F)F)n4n3)C2)cc1	not fulfilled
COc1cccc(OCC2CCN(c3ccc4nnc(C(F)(F)F)n4n3)CC2)c1	not fulfilled
N#Cc1cc(CN2CCN(c3ccc4nnc(C(F)F)n4n3)CC2)ccc1F	not fulfilled
O=C1NCN(c2ccccc2)C12CCN(c1ccc3nnc(C(F)(F)F)n3n1)CC2	fulfilled

----------
- systemName: Androgen Receptor (AR) (Homo sapiens, UniProt P10275, T878A)
- Construct: cell based immuno-fluorescence assay using the LNCaP prostate epithelial cell line; endogenous in cells; host or cells: LNCaP clone FGC (ATCC CRL-1740)
- procedureDetails: LNCaP Androgen Receptor Down-regulation Cell Assay (immunofluorescence end point)
- Assay type: cell-based
- conditionContext: LNCaP prostate carcinoma cells, compound incubation 20-22 hours, 50% reduction of the AR signal; read-out: Androgen Receptor Down-regulation Assay (a) IC50/μM
endpointLabel: DC50 (µM)

smilesText	systemName	unitsText	valueReported
O=C(c1cccc(C2CCN(c3ccc4nnc(C(F)(F)F)n4n3)CC2)c1)N1CCNCC1	Androgen Receptor (AR) (Homo sapiens, UniProt P10275, T878A)	µM	6.1
O=C(CN1CCCC1)Nc1ccc(C2CCN(c3ccc4nnc(C(F)(F)F)n4n3)CC2)cc1	Androgen Receptor (AR) (Homo sapiens, UniProt P10275, T878A)	µM	1.7
Cn1c(CN2CCN(c3ccc4nnc(C(F)(F)F)n4n3)CC2)cc2ccccc21	Androgen Receptor (AR) (Homo sapiens, UniProt P10275, T878A)	µM	1.4
CS(=O)(=O)N1CCN(CCCOc2ccc(C3CCN(c4ccc5nnc(C(F)(F)F)n5n4)CC3)cc2)CC1	Androgen Receptor (AR) (Homo sapiens, UniProt P10275, T878A)	µM	0.44
CN(CCO)C(=O)c1cccc(OC2CCN(c3ccc4nnc(C(F)(F)F)n4n3)CC2)c1	Androgen Receptor (AR) (Homo sapiens, UniProt P10275, T878A)	µM	5.7
Nc1cccc(C2CCN(c3ccc4nnc(C(F)(F)F)n4n3)CC2)c1	Androgen Receptor (AR) (Homo sapiens, UniProt P10275, T878A)	µM	1.7
FC(F)(F)c1nnc2ccc(N3CCC(c4cccc(OCCN5CCOCC5)c4)CC3)nn12	Androgen Receptor (AR) (Homo sapiens, UniProt P10275, T878A)	µM	0.56
Fc1ccc2c(CN3CCN(c4ccc5nnc(C(F)(F)F)n5n4)CC3)c[nH]c2c1	Androgen Receptor (AR) (Homo sapiens, UniProt P10275, T878A)	µM	0.98
FC(F)(F)c1nnc2ccc(N3CCC(Oc4cccc(OCCCN5CCNCC5)c4)CC3)nn12	Androgen Receptor (AR) (Homo sapiens, UniProt P10275, T878A)	µM	1.6
FC(F)c1nnc2ccc(N3CCN(C(c4ccccc4)c4ccccc4)CC3)nn12	Androgen Receptor (AR) (Homo sapiens, UniProt P10275, T878A)	µM	1.6
FC(F)(F)c1nnc2ccc(N3CCN(Cc4cc5ccccc5[nH]4)CC3)nn12	Androgen Receptor (AR) (Homo sapiens, UniProt P10275, T878A)	µM	1.7

All values here come from patent US8003649B2.
